# Experimental details: folding enthalpy; higher = less favourable; fluorescence melt of hairpins on a sequencing array, two-state fit
# Condition set: sodium 0.088 M
Answer no if folding enthalpy is under -20 kcal/mol, and yes if it is -20 kcal/mol or more.

Past entries and their recorded results:
- GGAGGTGAAAACCTCC ((((((....)))))): no
- GATCGTTGATACGATC ((((((....)))))): no
- GCCCACTCGAAAGAGGGC (((..(((....)))))): no
- GCCCGCTCGAAAGAGGGC (((..(((....)))))): no
- GGCGACCCGAAAGGGGCC (((..(((....)))))): yes
- GGTAAAGCGAAAGCTACC (((..(((....)))))): yes
- GATGCCGGAAACGGTGTC ((..(((....)))..)): no
- GCGGGTGCCCGC ((((....)))): no

Now for a further sequence.
stdin: # check: folding enthalpy of GGTCACGAAAGTGATACC ((((((....)))..))) is greater than or equal to -20 kcal/mol
stdout: yes

====

# Experimental details: melting temperature; fluorescence melt of hairpins on a sequencing array, two-state fit, raised by 9.35 °C to match UV melts
# Condition set: sodium 0.088 M
Recorded endpoint: Tm (°C)
Numbers only, in °C.

* GCTACCGAAAGGTCAGC ((((((....))).))) | 48.7
* GCTATGCGAAAGCAATGC ((..(((....)))..)) | 47.7
* GTAGTCGAAAGACTCTAC ((((((....)))..))) | 36.2
* GCTTGTACGAAAGTAAGC (((..(((....)))))) | 37.7
* GAACGCGAAAGCGCGTTC ((((((....)))..))) | 63.1

Hello, I would appreciate it if you could give Tm for each entry below.
1. GGGTTTGGAAACAAACCC (((((((....)))))))
2. GGGTACGGAAACGTGTCC ((..(((....)))..))
3. TGACTGAAAAGTCA (((((....)))))
4. GATCCCCGGGGGATC ((((((...))))))
5. GACTGGGCGAAAGCCGTC (((..(((....))))))
6. GCTTGAACGAAAGTTAGC (((..(((....))))))
7. GCGGCCAACCGC ((((....))))
8. GATCATAATAATGATC ((((((....))))))

stdout:
66.8
40.6
46
60.9
56.1
36.1
56.2
45.4

Hello, I would appreciate it if you could give Tm for each entry below.
1. GATCACTACAGTGATC ((((((....))))))
2. GATCCGCTGACGGATC ((((((....))))))
3. GATCTCGCGGAGATC ((((((...))))))

stdout:
[60.6, 60.7, 54.9]

Hello, I would appreciate it if you could give Tm for each entry below.
1. GTATCAGGAAACTGATAC (((((((....)))))))
2. GATCTGATTGCAGATC ((((((....))))))
3. GTGTCTGGAAACGGATAC ((.((.(....).)).))
4. GCACGGCGAAAGCAATGC (((..((....))..)))
5. GATCGTCACCACGATC ((((((....))))))

stdout:
1. 54.6
2. 48.2
3. 36.6
4. 39.1
5. 54

Hello, I would appreciate it if you could give Tm for each entry below.
1. GTAGCGACGAAAGTCTAC (((..(((....))))))
2. GCGGAGGGAAACCTTCGC (((.(((....))).)))

stdout:
1: 26.9; 2: 56.5

====

For each of the sequences below, state its folding enthalpy.
# Experimental details: folding enthalpy; higher = less favourable; fluorescence melt of hairpins on a sequencing array, two-state fit
# Condition set: sodium 0.088 M
Numbers only, in kcal/mol.

• GATCACGGGGGTGATC ((((((....)))))) = -36.7

Hello, I would appreciate it if you could give folding enthalpy for each entry below.
1. GGAGGCGAAAGCCGTCC ((((((....))).)))
2. GCAGACGAAAGTCAATGC ((((((....)))..)))
3. GTTAAGGGAAACCTTAGC (.(((((....))))).)
4. GCGACTGTTCGC ((((....))))
5. GATCGCGGAAACGCGACC (.(((((....))))).)

stdout:
-9.55
-19.3
-23.4
-22.5
-10.5

====

# Experimental details: melting temperature; fluorescence melt of hairpins on a sequencing array, two-state fit, raised by 9.35 °C to match UV melts
# Condition set: sodium 0.088 M
For each of the sequences below, state its Tm.
One number for each entry, in °C.

Solved entries (count: 6):
• GTGGATGAAAATCCAC ((((((....)))))) = 59.9
• ACGAGGAAACTCGT (((((....))))) = 50.3
• GCATCGCGAAAGCAGTGC (((..((....))..))) = 52.3
• TCTAGGAAACTAGA (((((....))))) = 29.7
• GACAGCGGAAACGCTGCC (.(((((....))))).) = 52.6
• GGGTATCGAAAGATTCCC (((.(((....))).))) = 48.8

Hello, I would appreciate it if you could give Tm for each entry below.
1. GATCCTCAGCAGGATC ((((((....))))))
2. GGCCCCGAAAGGGAAGCC ((((((....)))..)))
3. GTCTGAGGAAACTCAGGC (.(((((....))))).)
4. GATCGTTAGACGATC ((((((...))))))

stdout:
48.8
55.4
49.5
52.9

Hello, I would appreciate it if you could give Tm for each entry below.
1. GCGCGGCGAAAGCTGGGC ((.(.((....)).).))
2. GCAGGCGAAAGCCCTGC ((((((....))).)))

stdout:
67.2
65.6

====

# Experimental details: melting temperature; fluorescence melt of hairpins on a sequencing array, two-state fit, raised by 9.35 °C to match UV melts
# Condition set: sodium 0.088 M
Answer not satisfied if Tm is under 50 °C, and satisfied if it is 50 °C or more.

stdin: # check: Tm of GGATGTGGAAACACATTC (.(((((....))))).) is greater than or equal to 50 °C
stdout: not satisfied

====

# Experimental details: melting temperature; fluorescence melt of hairpins on a sequencing array, two-state fit, raised by 9.35 °C to match UV melts
# Condition set: sodium 0.088 M
Recorded endpoint: Tm (°C)
Give bare numbers, in °C.

Solved entries (count: 10):
• GATATGGCGAAAGCCATC (((..(((....)))))) = 34.2
• GTCGACGAAAGTCCCGAC ((((((....)))..))) = 34
• GATCTATTGCTAGATC ((((((....)))))) = 40.5
• GAGCTAGGAAACTAACTC (((.(((....))).))) = 30.4
• GCGGGCTTCCGC ((((....)))) = 61
• GGTATCGAAAGATAAACC ((((((....)))..))) = 30.4
• GCACGGGGAAACCCACGC ((..(((....)))..)) = 41.5
• GTCAAGGGAAACCCTGAC ((((.((....)).)))) = 43.7
• GTAATCGGAAACGATCAC ((.((((....)))).)) = 33.9
• GCAAAGCGAAAGCTAGGC ((..(((....)))..)) = 48.3

Hello, I would appreciate it if you could give Tm for each entry below.
1. GGTTGGAAACAACC (((((....)))))
2. GGACGGACGAAAGTCTCC (((..(((....))))))

stdout:
1: 54.9; 2: 30.5

====

# Experimental details: melting temperature; fluorescence melt of hairpins on a sequencing array, two-state fit, raised by 9.35 °C to match UV melts
# Condition set: sodium 0.088 M
Answer not fulfilled if Tm is under 50 °C, and fulfilled if it is 50 °C or more.

- GATCTGGCGGCAGATC ((((((....)))))): fulfilled

stdin: # check: Tm of GCGATAATCGC ((((...)))) is greater than or equal to 50 °C
stdout: not fulfilled

stdin: # check: Tm of GTCAGGGGAAACCCCAAC ((..(((....)))..)) is greater than or equal to 50 °C
stdout: not fulfilled

stdin: # check: Tm of GAAGACCGAAAGGTTTTC (((.(((....))).))) is greater than or equal to 50 °C
stdout: not fulfilled

stdin: # check: Tm of GGCTTTGGAAACAAGGCC (((.(((....))).))) is greater than or equal to 50 °C
stdout: fulfilled

stdin: # check: Tm of GCCAAGGAAACTTGGC ((((((....)))))) is greater than or equal to 50 °C
stdout: fulfilled
